Ref: PubChem BioAssay (NCI)

- Tested on: HOP-62 NSCLC
- Method summary: NCI-60 one-dose screen, 48 h (100 = growth as untreated, 0 = no growth, -100 = all killed)
- Recorded conditions: 10 µM
This is part of a sample that, as a whole, favours compounds with a hit. Of some 83,000 tested, about 20% had one in any assay.
Property label: growth (%)
Give just the numeric value; % need not be written.

Worked examples, 6 compounds total:
Compound | Target | growth [%]
CCN(CCCNc1cc2c(c(N)c1S(=O)(=O)O)C(=O)c1ccccc1C2=O)c1ccccc1 | HOP-62 NSCLC | 92.1
O=c1c(Br)ccc(Br)cc1Br | HOP-62 NSCLC | 15.2
C=CCn1c(SCC(=O)Nc2ccc(C(=O)/C=C/c3ccc(Cl)cc3)cc2)nnc1-c1cc(-c2ccccc2)nc2ccccc12 | HOP-62 NSCLC | 86.1
CCOC(=O)c1cc(C(=O)c2cc(OC)c(OC)c(OC)c2)n2ccc(-c3cc[n+](CC(=O)c4cc(OC)c(OC)c(OC)c4)cc3)cc12 | HOP-62 NSCLC | 94.8
CC(C)N(CCOc1ccc(-c2nc3sccn3c2-c2ccnc(S(C)(=O)=O)n2)cc1)C(C)C | HOP-62 NSCLC | 85.2
COc1cc(C2CC(c3ccccc3)=NN2C(C)=O)cc(OC)c1OC (stereo not given) | HOP-62 NSCLC | 68.2

Form field: reported growth of "CCN1CCN(CCC(=O)Nc2cccc(-n3cc(-c4ccncc4)c(-c4ccc(Cl)c(OC)c4)n3)c2)CC1"
37.7

Also check "CC(=O)[C@H]1CC[C@]2(C)[C@@H]1CC[C@@H]1[C@@]3(C)CC(CCC#N)(CCC#N)C(=O)C(C)(C)[C@@H]3CC[C@]12C"
99.3

Also check "NS(=O)(=O)c1ccc(N2N=C(c3ccccc3)CCC2=O)cc1"
95.8

Also check "CCCc1cn(CC(=O)Nc2nc3ccccc3s2)nn1"
102

Also check COc1cc(/C=C2\CCCC3C2=Nc2ccccc2NC3c2cc(OC)c(OC)c(OC)c2)cc(OC)c1OC (stereo not given)
-3.43

Also check "O=[N+]([O-])c1ccc2ncccc2c1Cl"
44.5

Also check "O=C(COc1cccc(/C=C2\CSc3ccc(Cl)cc3C2=O)c1)c1ccc(Cl)cc1"
83.6
